// reported pIC50 per item
- SUBJECT_OF_TEST: Wee1 kinase domain (Homo sapiens)
- Construct: Wee1 kinase domain was purchased from Carna (catalog #05-177); purchased Carna 05-177
- Sequence (P30291 299-569 limits assumed): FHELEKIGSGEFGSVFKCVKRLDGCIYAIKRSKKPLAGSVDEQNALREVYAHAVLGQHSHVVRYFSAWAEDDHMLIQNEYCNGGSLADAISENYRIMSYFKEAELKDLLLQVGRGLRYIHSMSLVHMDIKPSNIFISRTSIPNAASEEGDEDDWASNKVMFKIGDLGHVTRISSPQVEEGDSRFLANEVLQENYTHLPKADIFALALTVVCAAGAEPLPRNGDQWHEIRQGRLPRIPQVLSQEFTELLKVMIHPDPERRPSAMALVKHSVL
- PROTOCOL_DESCRIPTION: Wee1 Kinase Biochemical Assay (ADP-Glo)
- EXPERIMENTAL_PARAMETERS: Wee1 kinase domain, 15 uM ATP, ADP-Glo
pIC50: −log10 of the molar value.

Below are worked cases with known answers.
COMPOUND	pIC50
CNCc1ccc(Nc2ncc3c(n2)N(c2cccc(N4C(=O)OC[C@@H]4C)n2)[C@@H]2CC(C)(C)OC[C@]32C)cc1 (single isomer, unassigned)	> 8.00
CNCc1cccc(N2c3nc(Nc4ccc(N5C[C@H]6C[C@@H]5CO6)cc4)ncc3[C@]3(C)COC(C)(C)C[C@H]23)n1 (single isomer, unassigned)	7.00 to 8.00
CC1(C)C[C@H]2N(c3cccc(N=S(C)(C)=O)n3)c3nc(Nc4ccc([C@H]5CCNC5)cc4)ncc3[C@@]2(C)CO1 (single isomer, unassigned)	> 8.00
C[C@H]1COC(=O)N1c1cccc(N2c3nc(Nc4ccn(C)c(=O)c4)ncc3[C@]3(C)COC(C)(C)C[C@H]23)n1 (single isomer, unassigned)	6.00 to 7.00
CC1(C)C[C@@H]2N(c3cccc(N=S(C)(C)=O)n3)c3nc(Nc4ccc([C@]5(C)CCNC5)cc4)ncc3[C@]2(C)CO1 (single isomer, unassigned) [Example 172]	7.00 to 8.00

CN1CC[C@@H](Oc2ccc(Nc3ncc4c(n3)N(c3cccc(N=S(C)(C)=O)n3)[C@H]3CC(C)(C)OC[C@@]43C)cc2)C1 (single isomer, unassigned) tested on Wee1 kinase domain (Homo sapiens) gave pIC50: 6.00 to 7.00

CNCc1cccc(N2c3nc(Nc4ccc(C(C)(C)C(=O)N(C)C)cc4)ncc3[C@]3(C)COC(C)(C)C[C@H]23)n1 (single isomer, unassigned) tested on Wee1 kinase domain (Homo sapiens) gave pIC50: ≤ 6.00

CC1(C)C[C@H]2N(c3cccc([C@H]4CCCN4)n3)c3nc(Nc4ccn(C5CCOCC5)c(=O)c4)ncc3[C@@]2(C)CO1 (single isomer, unassigned) tested on Wee1 kinase domain (Homo sapiens) gave pIC50: > 8.00

====

- SUBJECT_OF_TEST: Wee1 kinase domain (Homo sapiens)
- Construct: Wee1 kinase domain was purchased from Carna (catalog #05-177); purchased Carna 05-177
- PROTOCOL_DESCRIPTION: Wee1 Kinase Biochemical Assay (ADP-Glo)
- EXPERIMENTAL_PARAMETERS: Wee1 kinase domain, 15 uM ATP, ADP-Glo
pIC50: −log10 of the molar value.
PROPERTY_NAME: pIC50

Below are worked cases with known answers.
COMPOUND	SUBJECT_OF_TEST	RESULT_VALUE
CNCc1cccc(N2c3nc(Nc4ccc(N5CCC(F)(F)C5)cc4)ncc3[C@@]3(C)COC(C)(C)C[C@@H]23)n1 (single isomer, unassigned) [Example 22]	Wee1 kinase domain (Homo sapiens)	> 8.00
CN1C[C@@H]2CN(c3ccc(Nc4ncc5c(n4)N(c4cccc(N=S(C)(C)=O)n4)[C@@H]4CC(C)(C)OC[C@]54C)cc3)C[C@@H]2C1 (single isomer, unassigned) [Example 217]	Wee1 kinase domain (Homo sapiens)	> 8.00

CNCc1cccc(N2c3nc(Nc4ccc(N5CCOCC5)c(Cl)c4)ncc3[C@]3(C)COC(C)(C)C[C@H]23)n1 (single isomer, unassigned) [Example 13] tested on Wee1 kinase domain (Homo sapiens) gave pIC50: 7.00 to 8.00

CN1CCC(n2cc(Nc3ncc4c(n3)N(c3cccc(N=S(C)(C)=O)n3)[C@H]3CC(C)(C)OC[C@@]43C)cn2)CC1 (single isomer, unassigned) [Example 101] tested on Wee1 kinase domain (Homo sapiens) gave pIC50: 6.00 to 7.00

CNCc1cccc(N2c3nc(Nc4ccc([C@@]5(C)CCN(C)C5=O)cc4)ncc3[C@@]3(C)COC(C)(C)C[C@@H]23)n1 (single isomer, unassigned) [Example 80] tested on Wee1 kinase domain (Homo sapiens) gave pIC50: > 8.00
